# System: MS2 coat protein
# PROTOCOL SUMMARY: apparent KD of MS2 coat protein; designed switch direction (-1 OFF switch, 1 ON switch): -1; higher = weaker reporter binding
# STATED CONDITIONS: Eterna round: R95; input ligand: microRNA oligo, concentration not stated
Measured apparent KD of MS2 coat protein, listed per entry for reference.

- BIOSEQUENCE: "AGUACGAUGCGUGCUGACAUGCGUCGUGCAGCAGGUGAUACAUGAGGAUCACCCAUGUCCUCAUUUGCUCGUCUUGA [Mat - Sensor v3 - Turn-off var 2 - D19] (puzzle: Sensor v3, turn-off variant 2)"
  apparent KD of MS2 coat protein [µM]: 0.499
- BIOSEQUENCE: "GGUGGACAUGAGGAUCACCCAUGUGAGGAUAUCGGCCGGUUCGUGGUGGCUGGCGUCUCGAGAAGGCACAUAGU [Exclusion 1 V69] (puzzle: Exclusion 1)"
  apparent KD of MS2 coat protein [µM]: 0.114
- BIOSEQUENCE: "AAGAGGUCAGGAUAUACAGGAAGAGAGAGAAGUAGAGGGUAACAUGAGGAUCACCCAUGUAGAAGGGACUAAGA [JR_Exclu2_Sub071] (puzzle: Exclusion 2)"
  apparent KD of MS2 coat protein [µM]: 0.0485

====

Measured apparent KD of MS2 coat protein, listed per entry for reference.
# Tested on: MS2 coat protein
# PROTOCOL SUMMARY: apparent KD of MS2 coat protein; designed switch direction (-1 OFF switch, 1 ON switch): -1; higher = weaker reporter binding
# STATED CONDITIONS: input ligand: FMN 200 uM
PROPERTY NAME: apparent KD of MS2 coat protein (nM)

- BIOSEQUENCE: "AAUUCACAUGAGGAUCACCCAUGUGAGGAUAUGGAUUCGCUGGCCGUAGCCAGUGGAUCCAGAAGGCGCGUGAU [JL-ex1-4.27] (Eterna round: R97, puzzle: Exclusion 1)"
  UNIT TEXT: "nM"
  QUANTITATIVE READOUT: 60.5
- BIOSEQUENCE: "AGUCGGUCAGGAUAUGCAUACGUAGACAUGAGGAUCACCCAUGUGACGUGGGCCUGGUGUGUAGAAGGGACGAGCA [EX5 #82] (Eterna round: R97, puzzle: Exclusion 5)"
  UNIT TEXT: "nM"
  QUANTITATIVE READOUT: 32.6
- BIOSEQUENCE: "CGGUGUAGAGGAUAUACGUGAAUUUUGUUAUUUUUUAAUUUACAUGAGGAUCACCCAUGUAGAAGGCUAUAGCG [JR_Ex2_Sub086] (Eterna round: R97, puzzle: Exclusion 2)"
  UNIT TEXT: "nM"
  QUANTITATIVE READOUT: 23.4

====

# Test system: MS2 coat protein
# PROTOCOL SUMMARY: apparent KD of MS2 coat protein; designed switch direction (-1 OFF switch, 1 ON switch): -1; higher = weaker reporter binding
# STATED CONDITIONS: input ligand: FMN 200 uM
Please mark fulfilled if the recorded apparent KD of MS2 coat protein is equal to or greater than 50 nM, and not fulfilled if it falls below.

- BIOSEQUENCE: "AGUAACCGGGCUUUUUGCUACAUGAGGAUCACCCAUGUUUAAGCGGAGGGAUUGAUCGUCCUAAAUUCUUUAGUCGG [Eternabot (L2) Solution 8] (Eterna round: R97, puzzle: Sensor, turn-off variant 1)"
  CLASS: "not fulfilled"
- BIOSEQUENCE: "UAGCAGAGAGGAUAUACAUUCAUCACCCGCGCAACAAGCGCACAUGAGGAUCACCCAUGUAGAAGGCUCGUGCC [EX2 C.20] (Eterna round: R97, puzzle: Exclusion 2)"
  CLASS: "fulfilled"
- BIOSEQUENCE: "CUGUACUGAGGAUAUACAUGAGGAUCACCCAUGUGAUGUAGUGCACGCGUACGUGUACGUAGAAGGCAGUACAG [Mat - Exclusion 3 - Eli Mod - D41] (Eterna round: R97, puzzle: Exclusion 3)"
  CLASS: "fulfilled"
- BIOSEQUENCE: "GCAGCGUAUGUAGGAUAUCGGUCAGUUUCUGAUCGAGAAGGACAUGAGGAUCACCCAUGUUAUUUCAUGCGUGAGCAUGGCUGC [JL ENG1 3.73] (Eterna round: R96, puzzle: Exclusion NG 1)"
  CLASS: "fulfilled"
- BIOSEQUENCE: "AACCCUCGUCAAGGAUAUACAUAGAAAAGCUUGGUAGAAGGUGACAUGAGGAUCACCCAUGUAAAAGGCCUGUCCAUUCAGGCC [Isonce] (Eterna round: R96, puzzle: Exclusion NG 1)"
  CLASS: "fulfilled"

====

# Test system: K4 kissing-loop RNA reporter
# PROTOCOL SUMMARY: apparent KD of K4 kissing-loop reporter; higher = weaker reporter binding
# STATED CONDITIONS: Eterna round: R107; input ligand: arginine 13.2 mM

- BIOSEQUENCE: "GUAGGCUACCGAGGAUAUAGUCCAACGGAGUGAUGUUCCGUCUUUCUUCAUCAUUAACGUUGUGAUCUAGAAGGCGGUAGCCUAC"
  apparent KD of K4 kissing-loop reporter / nM: 440
- BIOSEQUENCE: "AGGAUCCGUCGACAAAAGUCGACAUAAACCAAGGAUAUGACGAAAGUCAGAAGGUGGUCAUAAGACCAGUGAUGUUGGUGGAUCC [FmnA 11 #SwitchBubble #K4Late]"
  apparent KD of K4 kissing-loop reporter / nM: 268
- BIOSEQUENCE: "AGACCACAAAGUGGUCAGUGUUCGCUCCGGCGAGGACCGGUACGGCCGCCACUCGCGAGUGAUGUUCGCGAGCGGAGCGAACACA [Omei KL Tryp A Exc A v2]"
  apparent KD of K4 kissing-loop reporter / nM: 86.6
- BIOSEQUENCE: "ACCAUCAAAGAUGGCCAGGACUCCGCUGAUACCAGUGUGAAAACACUCCCUUGGCAGCAGGUGAGUGAUGUUCACAGUCCAUGGA [Omel KL Theo A SS B v3]"
  apparent KD of K4 kissing-loop reporter / nM: 116
- BIOSEQUENCE: "UCGGACCCUGGAGGAUAUGAGUCGAGUGAUGUUCGGCGGUCCAUGCCGGUGCGGCGUUAUGCCCUUUUAGAAGGCCAGGGUCCGA [#2 Exclusion - FMN B Attempt #11 (HarryS)]"
  apparent KD of K4 kissing-loop reporter / nM: 159
- BIOSEQUENCE: "UUAGAGAUCUCAGGAUAUCAGUGAUGUUGGUGUGAAGAUCUGAGAUAGAAUUCUAUCUCAGAUCAAUGAGAAGGGAGAUCUCAUU [AK3.1 Exc FMN B]"
  apparent KD of K4 kissing-loop reporter / nM: 162

====

Measured apparent KD of K4 kissing-loop reporter, listed per entry for reference.
# System: K4 kissing-loop RNA reporter;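 also: bound reporter read as fluorescence of individual clusters on recovered sequencing chips by microscopy, with normalized cluster intensities fitted with a binding model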
# PROTOCOL SUMMARY: apparent KD of K4 kissing-loop reporter; higher = weaker reporter binding
# STATED CONDITIONS: Eterna round: R107; input ligand: theophylline 20 uM
PROPERTY NAME: apparent KD of K4 kissing-loop reporter (nM)

- BIOSEQUENCE: "UGUCAUUGGUCUGAUACCAGUUGAUAAACUGGAGUGAUGUUCCAAGACGAGAAACUCGACAACCCUUGGCAGCAGACCGAUGACU [TheoBS 16 #SwitchBubble 13 #StaticStem]"
  TESTED TARGET: "K4 kissing-loop RNA reporter"
  QUANTITATIVE READOUT: 772
- BIOSEQUENCE: "UGCGGUAGUGAUGUUACCUCAUUAUACUAGCGAGGACCGGUACGGCCGCCACUCGACUUCCUCCACGCCUAGGCCUCUACGUUCA [theeternabot_sameState_KL_Trp_A_36]"
  TESTED TARGET: "K4 kissing-loop RNA reporter"
  QUANTITATIVE READOUT: 127
- BIOSEQUENCE: "CAAGGGCAAGUCGAUACCAGAGACACAUACCCGCAGUGAUGUUGCAGGAAACAGUUACUUCUCCCUUGGCAGCGAAUGCGACUUC [theeternabot_sameState_KL_Theo_B_45]"
  TESTED TARGET: "K4 kissing-loop RNA reporter"
  QUANTITATIVE READOUT: 309
- BIOSEQUENCE: "GGACGACAGGCGGCCGCCACUCAAAGCAGCCAGCGAGUGAUGUUCGUGGCGGAGUGAUGUUCCUAGAGGACCGGGUCUGCAGUUC [Same State Tryptophan B GF 18]"
  TESTED TARGET: "K4 kissing-loop RNA reporter"
  QUANTITATIVE READOUT: 490
- BIOSEQUENCE: "AAGCAGUCCCUUGUAGUCAUCGAAGAUGAACGAGGACCGGUACGGCCGCCACUCGGAGUGAUGUUCCGAAGGCUGCAAAAUAAAA [MatMod 19 - Jieux - Exclusion - Tryptophan A]"
  TESTED TARGET: "K4 kissing-loop RNA reporter"
  QUANTITATIVE READOUT: 152
- BIOSEQUENCE: "UCGUCCGGAUUACUCGUGGUCAUGGUCGAUACCAGUAGAUUAAUCUACCCUUGGCAGCGACAUGAGUGAUGUUCAUGUGCAAUGA [KL-XTheo-A6 #analogue]"
  TESTED TARGET: "K4 kissing-loop RNA reporter"
  QUANTITATIVE READOUT: 492
- BIOSEQUENCE: "UUUAAAUAUAGUGAUGUUAUAUAACAAUGACGAGGACCGGUACGGCCGCCACUCGAGAGAGAUAAUGGUCUAUAGAAUCUAUAGC [AstrosSSTryA#4]"
  TESTED TARGET: "K4 kissing-loop RNA reporter"
  QUANTITATIVE READOUT: 870
- BIOSEQUENCE: "UGUCAUUGGUCGGCCGCCACUAGACGGACAUAAAGUCUGUCAUAAAGAGUGAUGUUCUUAAAUAAUAGGACCGGGACCGAUGACU [TrypBS 29 #SwitchBubble #StaticStem]"
  TESTED TARGET: "K4 kissing-loop RNA reporter"
  QUANTITATIVE READOUT: 611
- BIOSEQUENCE: "AGUGGACGUGUCCGGAGUGAUGUUCAGGAUACCAGACACGAAAGUGUCCCUUGGCAGCCGGAGUGAUGUUCCGGCGUUCACUAAA [Omei KL Theo A Exc B v4]"
  TESTED TARGET: "K4 kissing-loop RNA reporter"
  QUANTITATIVE READOUT: 419
- BIOSEQUENCE: "UGUACCGAGUCAGGAUAUGGCGUCGAAAGACGAAACCAGUGAUGUUGGAAAAUCUGCGAAAGCAGUCCAGAAGGGACUUGGUACU [FmnBS 24 #SwitchBubble #StaticStem #DoubleMagnetSystem]"
  TESTED TARGET: "K4 kissing-loop RNA reporter"
  QUANTITATIVE READOUT: 227
- BIOSEQUENCE: "AUUAAUUUCAGAGGAUAUCGUGAUUUUGUUUAAUUUAUUCAUUUGUGCAGUGAUGUUGCUAAUAUUCGAGAAGGCUGAUUUAUAA [whbob_Ex_FMNB__2th225]"
  TESTED TARGET: "K4 kissing-loop RNA reporter"
  QUANTITATIVE READOUT: 132
